Answer each item with its documented pIC50.
target_of_assay: Pseudomonas aeruginosa LpxC enzyme (Pseudomonas aeruginosa (strain ATCC 15692 / DSM 22644 / CIP 104116 / JCM 14847 / LMG 12228 / 1C / PRS 101 / PAO1), UniProt P47205)
test_name: biochemical
Format: biochemical
condition_parameters: inhibitory activity on Pseudomonas aeruginosa LpxC enzyme, class symbols A/B/C; read-out: Enzyme inhibitory activity
pIC50: −log10 of the molar value.

# input Report measured pIC50; entry is CNC(=O)C(C(=O)NO)N(C)C(=O)c1ccc(-c2ccc(NC)c(C)c2)cc1 (stereo not drawn)
# output > 8.00

# input Specify measured pIC50 for CNC(=O)C(C(=O)NO)N(C)C(=O)c1ccc(-c2ccc3occc3c2)cc1 (stereo not drawn) .
# output > 8.00

# input Identify measured pIC50 corresponding to CNC(=O)C(C(=O)NO)N(C)C(=O)c1ccc(-c2ccc(OCc3ccc(CN4CCOCC4)cc3)cc2)cc1 (stereo not drawn)
# output > 8.00

# input Output measured pIC50 for this item: CNC(=O)C(C(=O)NO)N(C)C(=O)c1ccc(C#Cc2ccc(CNCCS(C)(=O)=O)cc2)cc1 (stereo not drawn)
# output > 8.00

# input Read the entry CNC(=O)C(C(=O)NO)N(C)C(=O)c1cnc(-c2ccc3c(c2)OCO3)c(F)c1 (stereo not drawn) and write its reported pIC50.
# output 7.00 to 8.00

# input // fetch pIC50 given entry CNC(=O)C(C(=O)NO)N(C)C(=O)c1ccc(-c2ccc(OCCCN3CC(OC)C3)cc2)cc1 (stereo not drawn)
# output > 8.00

# input Answer with the recorded pIC50 for the compound listed here: CN(C(=O)c1ccc(-c2ccccc2)cc1)C(C(N)=O)C(=O)NO (stereo not drawn)
# output 7.00 to 8.00

# input Specify pIC50 for CNC(=O)C(NC(=O)c1ccc(-c2ccc(NCCO)cc2)cc1)C(=O)NO (stereo not drawn) and stop.
# output 7.00 to 8.00

# input Please report pIC50 for the following compound: CNC(=O)C(C(=O)NO)N(C)C(=O)c1ccc(-c2ccc(/N=C/NO)cc2)cc1 (stereo not drawn)
# output > 8.00

# input Give the reported value of pIC50 for this record: CNC(=O)C(C(=O)NO)N(C)C(=O)c1ccc(-c2ccc(OCC(F)CN3CCOCC3)cc2)cc1 (stereo not drawn)
# output > 8.00

# input Give the measured pIC50 for CNC(=O)C(C(=O)NO)N(C)C(=O)c1ccc(-c2ccc(OCc3cccc(CN4CCOCC4)c3)cc2)cc1 (stereo not drawn)
# output > 8.00

# input Note pIC50 for the compound shown: CNC(=O)C(C(=O)NO)N(C)C(=O)c1ccc(-c2ccc(C)cc2F)c(F)c1 (stereo not drawn)
# output > 8.00

###

target_of_assay: Pseudomonas aeruginosa LpxC enzyme (Pseudomonas aeruginosa (strain ATCC 15692 / DSM 22644 / CIP 104116 / JCM 14847 / LMG 12228 / 1C / PRS 101 / PAO1))
test_name: biochemical
Format: biochemical
condition_parameters: inhibitory activity on Pseudomonas aeruginosa LpxC enzyme, class symbols A/B/C; read-out: Enzyme inhibitory activity
pIC50: −log10 of the molar value.
observable: pIC50

# input Supply pIC50 value. Item: O=C(NC(C(=O)NO)C(=O)NCCc1ccccn1)c1ccc(-c2ccc(OCCO)cc2)cc1 (stereo not shown)
# output > 8.00

# input Give the value of pIC50 reported for the following: CNC(=O)C(C(=O)NO)N(C)C(=O)c1ccc(-c2ccc(C3(C)OCCO3)cc2)cc1 (stereo not shown)
# output 7.00 to 8.00

# input Check the records and state pIC50 for CCN(C(=O)c1ccc(-c2ccc(NC)cc2)cc1)C(C(=O)NC)C(=O)NO (stereo not shown)
# output > 8.00

# input Quick one: give measured pIC50 for CNC(=O)C(C(=O)NO)N(C)C(=O)c1ccc(-c2ccc(NCC3CC3)cc2)cc1 (stereo not shown)
# output > 8.00

###

So I've got a bunch of compounds here, and I need their IC50 values.
target_of_assay: Pseudomonas aeruginosa LpxC enzyme (Pseudomonas aeruginosa (strain ATCC 15692 / DSM 22644 / CIP 104116 / JCM 14847 / LMG 12228 / 1C / PRS 101 / PAO1))
test_name: biochemical
Type: biochemical
condition_parameters: inhibitory activity on Pseudomonas aeruginosa LpxC enzyme, class symbols A/B/C; read-out: Enzyme inhibitory activity

# input Quick one: give measured IC50 for CNC(=O)C(C(=O)NO)N(C)C(=O)c1ccc(-c2ccc(CN(C)C(C)=O)cc2)cc1 (stereo not drawn) [Compound 239]
# output 10 to 100 nM

# input Give the reported IC50 for this compound. CC(=O)N(C)CCNC(=O)C(NC(=O)c1ccc(-c2ccc(OCCO)cc2)cc1)C(=O)NO (stereo not drawn) [Compound 145]
# output 10 to 100 nM

# input Entry CNC(=O)C(C(=O)NO)N(C)C(=O)c1ccc(C#Cc2ccc(CN3CCC(O)CC3)cc2)cc1 (stereo not drawn) [Compound 334] needs its IC50 filled in; supply it.
# output < 10 nM

# input Give the measured IC50 for CNC(=O)C(C(=O)NO)N(C)C(=O)c1ccc(-c2ccc(C#CCO)cc2)cc1 (stereo not drawn) [Compound 389]
# output < 10 nM

# input Please look at this compound and report its IC50: CNC(=O)C(C(=O)NO)N(C)C(=O)c1ccc(-c2ccc(OCCCN3CCS(=O)(=O)CC3)cc2)cc1 (stereo not drawn) [Compound 289]
# output < 10 nM

# input Note down IC50 recorded for CNC(=O)C(C(=O)NO)N(C)C(=O)c1ccc(-c2ccc3[nH]ccc3c2)cc1 (stereo not drawn) [Compound 201]
# output < 10 nM
